- targetUnderTest: Mitogen-activated protein kinase 3 (Homo sapiens, UniProt P27361)
- Sequence (P27361 whole entry): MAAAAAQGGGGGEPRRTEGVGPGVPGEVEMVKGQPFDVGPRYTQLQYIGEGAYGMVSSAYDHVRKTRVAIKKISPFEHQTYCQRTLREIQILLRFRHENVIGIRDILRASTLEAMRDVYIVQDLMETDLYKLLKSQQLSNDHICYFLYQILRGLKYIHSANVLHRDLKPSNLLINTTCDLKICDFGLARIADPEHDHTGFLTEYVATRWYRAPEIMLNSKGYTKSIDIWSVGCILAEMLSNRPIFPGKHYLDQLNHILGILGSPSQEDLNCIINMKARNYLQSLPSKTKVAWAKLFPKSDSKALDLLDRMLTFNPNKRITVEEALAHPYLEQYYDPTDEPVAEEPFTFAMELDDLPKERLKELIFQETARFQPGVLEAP
- testMethodNotes: Inhibition of human Erk1
measuredEndpoint: IC50 (µM)

In [3]: df
Out[3]:
                             compoundstring                           targetundertest  unitabbreviation  resultnumber
0  CC(C)[C@H](CO)Nc1nc(Nc2cccc(Cl)c2)c2ncn(C(C)C)c2n1  Mitogen-activated protein kinase 3 (Homo sapiens, UniProt P27361)                µM             9
1  CC(C)[C@H](CO)Nc1nc(Nc2ccc(C(=O)O)c(Cl)c2)c2ncn(C(C)C)c2n1  Mitogen-activated protein kinase 3 (Homo sapiens, UniProt P27361)                µM          3.33

====

- targetUnderTest: Protein kinase C beta type (Homo sapiens, UniProt P05771)
- Sequence (P05771 whole entry): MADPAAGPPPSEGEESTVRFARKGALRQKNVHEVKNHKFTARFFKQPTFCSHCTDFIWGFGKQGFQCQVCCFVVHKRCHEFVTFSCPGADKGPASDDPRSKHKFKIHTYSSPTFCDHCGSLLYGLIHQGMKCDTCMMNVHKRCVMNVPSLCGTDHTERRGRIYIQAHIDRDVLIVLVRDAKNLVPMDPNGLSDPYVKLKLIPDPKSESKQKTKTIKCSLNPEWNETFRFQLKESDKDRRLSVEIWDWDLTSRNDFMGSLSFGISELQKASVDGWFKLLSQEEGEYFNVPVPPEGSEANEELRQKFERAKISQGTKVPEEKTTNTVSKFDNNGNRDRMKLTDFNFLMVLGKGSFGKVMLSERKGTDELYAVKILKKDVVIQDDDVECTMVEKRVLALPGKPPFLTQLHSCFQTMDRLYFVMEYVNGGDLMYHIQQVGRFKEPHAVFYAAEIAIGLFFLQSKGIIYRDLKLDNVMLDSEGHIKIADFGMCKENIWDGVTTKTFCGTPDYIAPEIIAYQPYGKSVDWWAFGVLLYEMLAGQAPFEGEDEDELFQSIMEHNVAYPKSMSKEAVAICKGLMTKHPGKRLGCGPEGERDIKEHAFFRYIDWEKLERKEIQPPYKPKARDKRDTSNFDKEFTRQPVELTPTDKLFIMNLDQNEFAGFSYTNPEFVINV
- testMethodNotes: Inhibition of human PKCbeta1
pIC50: −log10 of the molar value.
measuredEndpoint: pIC50

>>> print(df.to_string())
                                   molecule  measuredendpoint  result
0  CC(C)[C@H](CO)Nc1nc(Nc2cccc(Cl)c2)c2ncn(C(C)C)c2n1 [PURVALANOLA]             pIC50  < 5.00
1  CC(C)[C@H](CO)Nc1nc(Nc2ccc(C(=O)O)c(Cl)c2)c2ncn(C(C)C)c2n1 [PURVALANOL B]             pIC50  < 4.00

====

- targetUnderTest: Cdc2 (Patiria pectinifera, UniProt Q17066)
- Sequence (Q17066 whole entry): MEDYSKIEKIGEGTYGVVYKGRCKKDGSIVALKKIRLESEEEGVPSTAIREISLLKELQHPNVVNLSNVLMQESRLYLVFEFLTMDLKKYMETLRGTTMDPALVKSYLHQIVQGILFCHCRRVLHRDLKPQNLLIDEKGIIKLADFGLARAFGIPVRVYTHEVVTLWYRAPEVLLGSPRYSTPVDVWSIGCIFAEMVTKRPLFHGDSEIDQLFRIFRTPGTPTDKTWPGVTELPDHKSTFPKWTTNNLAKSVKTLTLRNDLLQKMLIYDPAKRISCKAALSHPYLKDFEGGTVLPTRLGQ
- testMethodNotes: Inhibition of starfish cdc2/cyclin B assessed as [32P] incorporation in histone H1 from 1.5 mM [gamma32P]ATP
measuredEndpoint: IC50 (nM)

>>> df
                                   compound  measuredendpoint  resultnumber
0  CC(C)[C@H](CO)Nc1nc(Nc2cccc(Cl)c2)c2ncn(C(C)C)c2n1 [PURVALANOLA]              IC50           500

====

- targetUnderTest: Protein kinase C alpha type (Homo sapiens, UniProt P17252)
pIC50: −log10 of the molar value.
Below, each of the compounds is paired with its reported pIC50 value.
measuredEndpoint: pIC50

In [3]: df
Out[3]:
                             compoundstring  result
0  CC(C)[C@H](CO)Nc1nc(Nc2cccc(Cl)c2)c2ncn(C(C)C)c2n1  < 5.00
1  CC(C)[C@H](CO)Nc1nc(Nc2ccc(C(=O)O)c(Cl)c2)c2ncn(C(C)C)c2n1  < 4.00

====

- targetUnderTest: Cyclin-dependent kinase 2 (Homo sapiens, UniProt P24941)
- testMethodNotes: Inhibition of human cdk2/cyclin E
measuredEndpoint: IC50

>>> df
                             compoundstring  result
0  CC(C)[C@H](CO)Nc1nc(Nc2cccc(Cl)c2)c2ncn(C(C)C)c2n1   35 nM

====

- targetUnderTest: Cyclin-dependent kinase 5/CDK5 activator 1 (Homo sapiens)
- Sequence (Q00535 whole entry): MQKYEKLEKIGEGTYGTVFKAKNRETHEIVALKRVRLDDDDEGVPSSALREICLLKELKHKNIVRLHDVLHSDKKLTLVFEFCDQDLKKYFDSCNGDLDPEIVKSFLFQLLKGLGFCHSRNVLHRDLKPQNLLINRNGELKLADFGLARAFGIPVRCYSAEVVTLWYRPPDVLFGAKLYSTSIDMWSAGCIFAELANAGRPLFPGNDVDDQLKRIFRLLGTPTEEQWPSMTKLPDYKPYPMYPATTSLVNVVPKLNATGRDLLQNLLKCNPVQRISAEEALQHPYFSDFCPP
- Sequence (Q15078 whole entry, further chain): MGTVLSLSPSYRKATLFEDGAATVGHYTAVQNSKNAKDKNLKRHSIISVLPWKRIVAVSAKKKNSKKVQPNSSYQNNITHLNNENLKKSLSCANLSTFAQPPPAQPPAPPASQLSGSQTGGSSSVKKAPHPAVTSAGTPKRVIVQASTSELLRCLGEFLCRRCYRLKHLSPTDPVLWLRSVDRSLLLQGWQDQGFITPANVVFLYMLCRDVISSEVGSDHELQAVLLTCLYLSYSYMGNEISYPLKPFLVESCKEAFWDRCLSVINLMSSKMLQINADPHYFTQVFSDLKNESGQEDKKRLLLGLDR
- testMethodNotes: Inhibition of human cdk5/p35
measuredEndpoint: IC50 (nM)

>>> df
                             compoundstring  unitabbreviation  resultnumber
0  CC(C)[C@H](CO)Nc1nc(Nc2cccc(Cl)c2)c2ncn(C(C)C)c2n1                nM            75

====

- targetUnderTest: Insulin receptor (Homo sapiens, UniProt P06213)
- Sequence (P06213 28-758 limits assumed): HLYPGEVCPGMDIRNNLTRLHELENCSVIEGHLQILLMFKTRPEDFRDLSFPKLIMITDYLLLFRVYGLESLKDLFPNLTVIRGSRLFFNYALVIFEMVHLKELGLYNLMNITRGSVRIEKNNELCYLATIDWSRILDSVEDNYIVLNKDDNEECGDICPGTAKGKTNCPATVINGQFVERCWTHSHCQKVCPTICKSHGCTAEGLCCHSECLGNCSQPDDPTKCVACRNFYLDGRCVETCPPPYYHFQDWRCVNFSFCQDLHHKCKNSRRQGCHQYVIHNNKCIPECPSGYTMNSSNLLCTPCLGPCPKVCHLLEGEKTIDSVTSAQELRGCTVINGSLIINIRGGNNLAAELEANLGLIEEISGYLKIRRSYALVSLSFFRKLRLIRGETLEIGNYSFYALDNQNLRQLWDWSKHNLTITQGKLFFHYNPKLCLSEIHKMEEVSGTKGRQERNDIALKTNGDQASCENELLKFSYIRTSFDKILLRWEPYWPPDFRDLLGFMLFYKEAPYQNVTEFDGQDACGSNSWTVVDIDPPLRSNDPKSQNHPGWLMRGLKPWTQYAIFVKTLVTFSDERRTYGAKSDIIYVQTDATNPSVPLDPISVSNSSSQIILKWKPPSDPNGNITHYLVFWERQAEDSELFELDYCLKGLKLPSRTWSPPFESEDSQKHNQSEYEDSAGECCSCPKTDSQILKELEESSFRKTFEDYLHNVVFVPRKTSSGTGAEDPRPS
- Sequence (P06213 763-1382 limits assumed): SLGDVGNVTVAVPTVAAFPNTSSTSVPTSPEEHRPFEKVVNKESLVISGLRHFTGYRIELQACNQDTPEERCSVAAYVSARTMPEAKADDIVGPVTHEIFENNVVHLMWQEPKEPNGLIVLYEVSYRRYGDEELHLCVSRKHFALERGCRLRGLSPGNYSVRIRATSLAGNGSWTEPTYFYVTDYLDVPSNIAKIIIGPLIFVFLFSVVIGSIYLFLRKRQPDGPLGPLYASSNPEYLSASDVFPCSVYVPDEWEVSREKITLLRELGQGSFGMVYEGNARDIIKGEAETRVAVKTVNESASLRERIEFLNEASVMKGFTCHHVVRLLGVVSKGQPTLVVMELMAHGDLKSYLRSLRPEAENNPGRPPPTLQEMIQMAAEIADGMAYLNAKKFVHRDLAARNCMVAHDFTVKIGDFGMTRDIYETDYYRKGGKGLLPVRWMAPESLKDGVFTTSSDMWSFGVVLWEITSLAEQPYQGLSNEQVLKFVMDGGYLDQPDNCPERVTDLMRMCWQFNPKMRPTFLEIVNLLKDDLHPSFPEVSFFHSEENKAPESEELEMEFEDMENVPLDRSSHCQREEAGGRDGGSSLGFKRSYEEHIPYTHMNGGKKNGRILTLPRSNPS
measuredEndpoint: IC50 (µM)

>>> df
                             compoundstring  measuredendpoint  unitabbreviation  resultnumber
0  CC(C)[C@H](CO)Nc1nc(Nc2cccc(Cl)c2)c2ncn(C(C)C)c2n1              IC50                µM             5

====

pIC50: −log10 of the molar value.
# pIC50 per entry for Protein kinase C eta type (Homo sapiens, UniProt P24723)
measuredEndpoint: pIC50

>>> df
                             compoundstring  result
0  CC(C)[C@H](CO)Nc1nc(Nc2cccc(Cl)c2)c2ncn(C(C)C)c2n1  < 4.00
1  CC(C)[C@H](CO)Nc1nc(Nc2ccc(C(=O)O)c(Cl)c2)c2ncn(C(C)C)c2n1  < 4.00

====

- targetUnderTest: Protein kinase C beta type (Homo sapiens)
- testMethodNotes: Inhibition of human PKCbeta2
Below, each of the molecules is paired with its reported IC50 value.
measuredEndpoint: IC50

In [3]: df
Out[3]:
                                   molecule                           targetundertest    result
0  CC(C)[C@H](CO)Nc1nc(Nc2cccc(Cl)c2)c2ncn(C(C)C)c2n1 [PURVALANOLA]  Protein kinase C beta type (Homo sapiens)   > 10 µM
1  CC(C)[C@H](CO)Nc1nc(Nc2ccc(C(=O)O)c(Cl)c2)c2ncn(C(C)C)c2n1 [PURVALANOL B]  Protein kinase C beta type (Homo sapiens)  > 100 µM

====

- testMethodNotes: Inhibition of human v-abl
Below, each of the molecules is paired with its reported IC50 value.
measuredEndpoint: IC50

In [3]: df
Out[3]:
                             compoundstring    result
0  CC(C)[C@H](CO)Nc1nc(Nc2cccc(Cl)c2)c2ncn(C(C)C)c2n1   > 10 µM
1  CC(C)[C@H](CO)Nc1nc(Nc2ccc(C(=O)O)c(Cl)c2)c2ncn(C(C)C)c2n1  > 100 µM

====

- testMethodNotes: Inhibition of human cGMP-dependent protein kinase
pIC50: −log10 of the molar value.
Below, each of the compounds is paired with its reported pIC50 value.
measuredEndpoint: pIC50

>>> df
                                   compound  measuredendpoint  result
0  CC(C)[C@H](CO)Nc1nc(Nc2cccc(Cl)c2)c2ncn(C(C)C)c2n1 [PURVALANOLA]             pIC50  < 5.00
1  CC(C)[C@H](CO)Nc1nc(Nc2ccc(C(=O)O)c(Cl)c2)c2ncn(C(C)C)c2n1 [PURVALANOL B]             pIC50  < 4.00

====

- targetUnderTest: UniProt:P24941
- testMethodNotes: Inhibition of human cdk2/cyclin A
pIC50: −log10 of the molar value.
measuredEndpoint: pIC50

In [3]: df
Out[3]:
                             compoundstring  targetundertest  resultnumber
0  CC(C)[C@H](CO)Nc1nc(Nc2cccc(Cl)c2)c2ncn(C(C)C)c2n1   UniProt:P24941          7.15

====

- targetUnderTest: Protein kinase C epsilon type (Homo sapiens, UniProt Q02156)
- Sequence (Q02156 whole entry): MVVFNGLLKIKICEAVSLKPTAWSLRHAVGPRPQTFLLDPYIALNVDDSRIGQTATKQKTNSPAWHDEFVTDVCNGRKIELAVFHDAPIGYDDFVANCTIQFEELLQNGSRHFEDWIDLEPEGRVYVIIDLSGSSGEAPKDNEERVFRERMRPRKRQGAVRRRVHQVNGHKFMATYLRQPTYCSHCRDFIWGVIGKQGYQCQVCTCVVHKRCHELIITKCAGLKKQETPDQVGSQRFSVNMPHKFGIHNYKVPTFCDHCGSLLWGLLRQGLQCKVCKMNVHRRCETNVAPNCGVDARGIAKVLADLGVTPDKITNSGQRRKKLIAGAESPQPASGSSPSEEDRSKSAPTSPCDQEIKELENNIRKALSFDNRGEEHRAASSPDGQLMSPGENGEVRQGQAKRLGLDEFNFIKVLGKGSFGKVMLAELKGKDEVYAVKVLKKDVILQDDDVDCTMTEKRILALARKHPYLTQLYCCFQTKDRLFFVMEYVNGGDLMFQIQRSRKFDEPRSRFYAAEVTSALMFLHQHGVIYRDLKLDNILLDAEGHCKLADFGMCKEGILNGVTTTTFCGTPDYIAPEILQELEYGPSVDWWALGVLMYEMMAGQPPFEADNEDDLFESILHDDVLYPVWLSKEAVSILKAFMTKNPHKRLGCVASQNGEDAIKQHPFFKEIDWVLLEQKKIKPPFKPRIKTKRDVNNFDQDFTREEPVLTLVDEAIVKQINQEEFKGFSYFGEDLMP
pIC50: −log10 of the molar value.
measuredEndpoint: pIC50

>>> print(df.to_string())
                                   compound  measuredendpoint  result
0  CC(C)[C@H](CO)Nc1nc(Nc2ccc(C(=O)O)c(Cl)c2)c2ncn(C(C)C)c2n1 [PURVALANOL B]             pIC50  < 4.00
1  CC(C)[C@H](CO)Nc1nc(Nc2cccc(Cl)c2)c2ncn(C(C)C)c2n1 [PURVALANOLA]             pIC50  < 4.00

Values from ChEMBL document CHEMBL1153829
